// data source = patent US20100129369A1

Reported Average A450 nm values for the following binders.
- assay.system: T1, Human c-Met-Flis-Fc ECD (human)
- T1 construct: also called human c-Met extracellular domain (ECD)-Fc-Flis fusion; Human cMet-ECD-Fc-Flis
- T1 sequence (chain, as listed by the source limits assumed): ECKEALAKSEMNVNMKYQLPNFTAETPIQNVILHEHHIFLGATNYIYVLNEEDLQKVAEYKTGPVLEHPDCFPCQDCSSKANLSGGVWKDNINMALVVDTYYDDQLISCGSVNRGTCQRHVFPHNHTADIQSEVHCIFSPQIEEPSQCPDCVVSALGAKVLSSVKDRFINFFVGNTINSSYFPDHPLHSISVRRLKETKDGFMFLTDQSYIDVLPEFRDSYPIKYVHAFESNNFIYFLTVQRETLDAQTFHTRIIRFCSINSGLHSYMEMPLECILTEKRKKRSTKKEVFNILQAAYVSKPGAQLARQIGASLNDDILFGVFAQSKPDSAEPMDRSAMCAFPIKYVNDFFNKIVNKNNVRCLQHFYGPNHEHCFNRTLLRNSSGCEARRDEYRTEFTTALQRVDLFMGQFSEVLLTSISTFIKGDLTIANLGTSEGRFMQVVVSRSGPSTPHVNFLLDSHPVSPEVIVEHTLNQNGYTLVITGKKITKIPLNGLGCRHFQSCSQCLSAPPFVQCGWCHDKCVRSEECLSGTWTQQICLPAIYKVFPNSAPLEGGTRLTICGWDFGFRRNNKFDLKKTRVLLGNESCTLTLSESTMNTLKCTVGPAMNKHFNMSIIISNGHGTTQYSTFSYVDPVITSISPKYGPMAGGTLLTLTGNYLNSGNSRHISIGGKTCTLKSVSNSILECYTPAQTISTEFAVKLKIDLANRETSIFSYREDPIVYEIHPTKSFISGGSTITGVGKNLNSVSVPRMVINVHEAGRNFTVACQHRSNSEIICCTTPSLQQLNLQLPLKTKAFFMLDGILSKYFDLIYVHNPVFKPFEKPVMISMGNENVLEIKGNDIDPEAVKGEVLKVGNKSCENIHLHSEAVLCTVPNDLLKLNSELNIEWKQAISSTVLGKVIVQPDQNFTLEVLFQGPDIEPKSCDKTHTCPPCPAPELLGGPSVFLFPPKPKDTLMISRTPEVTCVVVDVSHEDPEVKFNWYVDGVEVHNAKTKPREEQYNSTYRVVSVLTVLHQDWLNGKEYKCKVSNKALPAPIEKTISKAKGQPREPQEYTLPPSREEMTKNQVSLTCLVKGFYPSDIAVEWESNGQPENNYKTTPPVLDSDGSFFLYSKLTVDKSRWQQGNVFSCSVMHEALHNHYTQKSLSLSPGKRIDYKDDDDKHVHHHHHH
- assay: ELISA, coated ECD-Fc, antibody 0.000 ng/mL
Numeric answer only, unit A450 nm assumed.

binder="D11-8B8 (antibody, human IgG2, kappa, V domains shown, Human engineered IgG2, kappa; expressed in HEK293 EBNA cells; also called Mab D11-8B8) VH: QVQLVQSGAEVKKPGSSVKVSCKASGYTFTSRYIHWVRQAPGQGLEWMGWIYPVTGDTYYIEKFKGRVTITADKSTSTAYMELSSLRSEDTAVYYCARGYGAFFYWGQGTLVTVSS VL: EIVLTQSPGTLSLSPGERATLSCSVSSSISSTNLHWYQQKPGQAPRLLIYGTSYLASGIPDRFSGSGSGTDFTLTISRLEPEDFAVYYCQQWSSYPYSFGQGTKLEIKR" measured_property="Average A450 nm" recorded_number=0.297

Next binder, please.
GET /values?readout=Average A450 nm&item= D11-S17Y (antibody, human IgG2, kappa, V domains shown, Human engineered IgG2, kappa) VH: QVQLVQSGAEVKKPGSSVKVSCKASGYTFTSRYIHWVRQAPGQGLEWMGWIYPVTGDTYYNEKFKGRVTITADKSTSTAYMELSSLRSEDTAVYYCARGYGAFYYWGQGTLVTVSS VL: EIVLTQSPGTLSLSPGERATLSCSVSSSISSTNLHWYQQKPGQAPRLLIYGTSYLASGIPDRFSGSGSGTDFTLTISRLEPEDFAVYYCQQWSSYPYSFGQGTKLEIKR
0.315
